Listed below: Inhibitory activity on 5α-reductase (% of control) values for each entry.
# system_name: rat liver microsomal 5α-reductase (Rattus norvegicus, UniProt P24008)
# Construct: The reaction was started with the addition of liver microsomes (20 μg protein); from tissue; host or cells: liver microsomes of male Sprague–Dawley rats
# Sequence (P24008 whole entry): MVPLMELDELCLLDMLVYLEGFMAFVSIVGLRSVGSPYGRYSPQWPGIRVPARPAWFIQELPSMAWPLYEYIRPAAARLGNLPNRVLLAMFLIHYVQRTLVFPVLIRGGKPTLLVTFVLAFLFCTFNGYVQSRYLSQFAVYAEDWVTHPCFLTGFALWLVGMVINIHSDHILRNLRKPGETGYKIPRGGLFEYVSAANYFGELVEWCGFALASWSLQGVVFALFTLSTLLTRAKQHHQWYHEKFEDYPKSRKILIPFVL
# assay_procedure: 5α-reductase assay using rat liver microsomes (testosterone metabolism, HPLC and TLC)
# Type: biochemical
# experimental_parameters: test sample 1 μmol/L; testosterone 3.5 μmol/L, 30 min, rat liver microsomes 40 μg/mL, HPLC; mean ± SEM, N = 3

# example entries with known answers
INSERT INTO assay_data (compound, measured) VALUES
  ('O=C(OC[C@H]1O[C@@H](OC(=O)c2cc(O)c(O)c(O)c2)[C@H](OC(=O)c2cc(O)c(O)c(O)c2)[C@@H](OC(=O)c2cc(O)c(O)c(O)c2)[C@@H]1OC(=O)c1cc(O)c(O)c(O)c1)c1cc(O)c(O)c(O)c1 [Pentagalloyl glucose, 1,2,3,4,6-penta-O-galloyl glucose]', '36.1 ± 6.5 % of control'),
  ('O=C(O[C@@H]1Cc2c(O)cc(O)cc2O[C@@H]1c1cc(O)c(O)c(O)c1)c1cc(O)c(O)c(O)c1 [(−)-Epigallocatechin gallate, (−)-epigallocatechin gallate]', '4.4 ± 0.4 % of control');

Req: Quick check: Inhibitory activity on 5α-reductase (% of control) of O=C(O[C@@H]1O[C@@H]2COC(=O)c3cc(O)c(O)c(O)c3-c3c(cc(O)c(O)c3O)C(=O)O[C@H]2[C@H](OC(=O)c2cc(O)c(O)c(O)c2)[C@H]1OC(=O)c1cc(O)c(O)c(O)c1)c1cc(O)c(O)c(O)c1 [Eugeniin, eugeniin] ?
Resp: 13.9 ± 0.5 % of control

Req: Quick check: Inhibitory activity on 5α-reductase (% of control) of O=C(O[C@@H]1Cc2c(O)cc(O)cc2O[C@@H]1c1ccc(O)c(O)c1)c1cc(O)c(O)c(O)c1 [(−)-Epicatechin gallate, (−)-epicatechin gallate] ?
Resp: 4.9 ± 0.2 % of control

---

Listed below: pIC50 values for each entry.
# system_name: rat liver microsomal 5α-reductase (Rattus norvegicus)
Remember, pIC50 is on a log scale: it is -log10 of the molar concentration.

Req: Write down the reported pIC50 of O=C(OC[C@H]1OC(OC(=O)c2cc(O)c(O)c(O)c2)[C@H](OC(=O)c2cc(O)c(O)c(O)c2)[C@@H](OC(=O)c2cc(O)c(O)c(O)c2)[C@@H]1O)c1cc(O)c(O)c(O)c1 (stereo partly drawn) [Tetragalloyl glucose, 1,2,3,6-tetra-O-galloyl glucose] , test system: rat liver microsomal 5α-reductase (Rattus norvegicus).
Resp: 5.09

Req: Write down the reported pIC50 of O=C(O[C@H]1[C@@H]2OC(=O)c3cc(O)c(O)c(O)c3-c3c(cc(O)c(O)c3O)C(=O)OC[C@H]2OC(O)[C@@H]1OC(=O)c1cc(O)c(O)c(O)c1)c1cc(O)c(O)c(O)c1 (stereo partly drawn) [1-Desgalloyl eugeniin, 1-desgalloyl eugeniin] , test system: rat liver microsomal 5α-reductase (Rattus norvegicus).
Resp: 4.90

Req: Write down the reported pIC50 of O=C1OC[C@H]2OC(=O)c3cc(O)c(O)c(O)c3-c3c(O)c(O)c(O)c4c3C(=O)O[C@H]([C@H]3OC(=O)c5c-4c(O)c(O)c(O)c5[C@H]3O)[C@@H]2OC(=O)c2cc(O)c(O)c(O)c2-c2c1cc(O)c(O)c2O [Castalagin, castalagin] , test system: rat liver microsomal 5α-reductase (Rattus norvegicus).
Resp: 5.10

Req: Write down the reported pIC50 of O=C(OC[C@H]1O[C@@H](OC(=O)c2cc(O)c(O)c(O)c2)[C@H](OC(=O)c2cc(O)c(O)c(O)c2)[C@@H](OC(=O)c2cc(O)c(O)c(O)c2)[C@@H]1OC(=O)c1cc(O)c(O)c(O)c1)c1cc(O)c(O)c(O)c1 [Pentagalloyl glucose, 1,2,3,4,6-penta-O-galloyl glucose] , test system: rat liver microsomal 5α-reductase (Rattus norvegicus).
Resp: 5.60
